biological target: Metallo-beta-lactamase type 2 (Bacteroides fragilis, UniProt P25910); assay: In vitro inhibitory activity against Class B (CCRA) beta-Lactamases
Sequence (P25910 whole entry): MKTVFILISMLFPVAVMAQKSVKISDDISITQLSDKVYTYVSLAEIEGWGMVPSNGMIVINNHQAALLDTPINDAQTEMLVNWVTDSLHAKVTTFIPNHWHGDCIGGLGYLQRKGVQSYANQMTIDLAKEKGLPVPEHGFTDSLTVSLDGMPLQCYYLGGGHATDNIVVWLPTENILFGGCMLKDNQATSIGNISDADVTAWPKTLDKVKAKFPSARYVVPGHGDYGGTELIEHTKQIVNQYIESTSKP
Readout: IC50 (nM)

1. O=C(O)C1=CS[C@@H]2/C(=C\c3cnc4n3CCNC4)C(=O)N12 : 320
2. O=C(O)C1=CS[C@@H]2/C(=C\c3cnc4n3CCOC4)C(=O)N12 : 66
